Values from patent US20090012103A1

Assayed Target: hERG potassium channel (Homo sapiens, UniProt Q12809)
Sequence (Q12809 whole entry): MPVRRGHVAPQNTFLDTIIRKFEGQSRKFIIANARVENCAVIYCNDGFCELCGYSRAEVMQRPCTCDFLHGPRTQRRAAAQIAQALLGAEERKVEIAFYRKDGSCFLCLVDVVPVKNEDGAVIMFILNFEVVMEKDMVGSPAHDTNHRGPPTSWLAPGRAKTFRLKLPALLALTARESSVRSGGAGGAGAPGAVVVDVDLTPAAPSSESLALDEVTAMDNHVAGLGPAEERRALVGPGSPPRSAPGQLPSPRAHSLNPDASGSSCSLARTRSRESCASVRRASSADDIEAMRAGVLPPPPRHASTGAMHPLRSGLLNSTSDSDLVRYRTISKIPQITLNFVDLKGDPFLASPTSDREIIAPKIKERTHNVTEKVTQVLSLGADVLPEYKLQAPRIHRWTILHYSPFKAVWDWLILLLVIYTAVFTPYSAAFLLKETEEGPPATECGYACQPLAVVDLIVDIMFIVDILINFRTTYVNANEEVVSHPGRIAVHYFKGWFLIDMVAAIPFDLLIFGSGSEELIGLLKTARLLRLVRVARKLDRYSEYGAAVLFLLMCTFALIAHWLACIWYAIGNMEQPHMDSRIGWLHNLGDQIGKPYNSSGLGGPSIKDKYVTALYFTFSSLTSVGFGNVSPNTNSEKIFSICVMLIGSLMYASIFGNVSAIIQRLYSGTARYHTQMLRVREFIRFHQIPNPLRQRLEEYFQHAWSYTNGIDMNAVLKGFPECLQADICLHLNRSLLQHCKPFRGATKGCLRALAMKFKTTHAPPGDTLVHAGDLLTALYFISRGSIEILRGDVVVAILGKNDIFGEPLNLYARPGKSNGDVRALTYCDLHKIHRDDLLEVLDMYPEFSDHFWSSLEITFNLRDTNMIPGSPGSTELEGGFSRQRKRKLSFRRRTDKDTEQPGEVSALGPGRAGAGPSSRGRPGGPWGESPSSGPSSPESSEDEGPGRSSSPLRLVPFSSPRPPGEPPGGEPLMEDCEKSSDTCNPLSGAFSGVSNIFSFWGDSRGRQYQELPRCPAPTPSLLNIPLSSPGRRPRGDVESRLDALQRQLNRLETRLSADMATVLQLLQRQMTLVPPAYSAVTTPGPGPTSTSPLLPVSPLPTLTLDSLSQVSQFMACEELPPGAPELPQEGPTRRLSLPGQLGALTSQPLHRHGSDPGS
Measurement Protocol: hERG screening assay (PatchXpress patch clamp, CHO cell line)
Test Conditions: 10 μM
Readout Type: hERG Patch Clamp hERG % blk (%)

[[record]]
molecule = "CCOC(=O)C1=C(C)N(C)C(C)=C(C(=O)OCC)C1c1cccc2ccccc12 [PT-191]"
assayed_target = "hERG potassium channel (Homo sapiens, UniProt Q12809)"
readout_type = "hERG Patch Clamp hERG % blk"
unit_text = "%"
assay_value = 68.0

[[record]]
molecule = "CCOC(=O)C1=C(C)NC(C)=C(C(=O)OCC)C1c1ccc(CC)s1 [PT-113]"
assayed_target = "hERG potassium channel (Homo sapiens, UniProt Q12809)"
readout_type = "hERG Patch Clamp hERG % blk"
unit_text = "%"
assay_value = 57.3

[[record]]
molecule = "CC1=C(C(=O)NCc2ccccc2)C(c2ccsc2)C2=C(CCCC2=O)N1 (stereo not shown) [PT-178]"
assayed_target = "hERG potassium channel (Homo sapiens, UniProt Q12809)"
readout_type = "hERG Patch Clamp hERG % blk"
unit_text = "%"
assay_value = 30.0

[[record]]
molecule = "CC1=C(C(=O)OCc2ccccc2)C(c2ccccc2-c2ccc(C(=O)O)cc2)n2nnnc2N1 (stereo not shown) [PT-254]"
assayed_target = "hERG potassium channel (Homo sapiens, UniProt Q12809)"
readout_type = "hERG Patch Clamp hERG % blk"
unit_text = "%"
assay_value = 20.0

[[record]]
molecule = "CC1=C(c2nnc(CCc3ccccc3)o2)C(c2cccc3ccccc23)n2nnnc2N1 (stereo not shown) [PT-252]"
assayed_target = "hERG potassium channel (Homo sapiens, UniProt Q12809)"
readout_type = "hERG Patch Clamp hERG % blk"
unit_text = "%"
assay_value = 78.0

[[record]]
molecule = "CCOC(=O)C1=C(C)Nc2nnnn2C1c1ccc2ccccc2c1 (stereo not shown) [PT-008]"
assayed_target = "hERG potassium channel (Homo sapiens, UniProt Q12809)"
readout_type = "hERG Patch Clamp hERG % blk"
unit_text = "%"
assay_value = 33.5

[[record]]
molecule = "CC1=C(C(=O)OCc2ccc(Cn3cccn3)cc2)C(c2cccc3ccccc23)n2nnnc2N1 (stereo not shown) [PT-279]"
assayed_target = "hERG potassium channel (Homo sapiens, UniProt Q12809)"
readout_type = "hERG Patch Clamp hERG % blk"
unit_text = "%"
assay_value = 45.0

[[record]]
molecule = "CCOC(=O)C1=C(C)NC2=C(C(=O)CCC2)C1c1ccnc2ccccc12 (stereo not shown) [PT-190]"
assayed_target = "hERG potassium channel (Homo sapiens, UniProt Q12809)"
readout_type = "hERG Patch Clamp hERG % blk"
unit_text = "%"
assay_value = 32.0

[[record]]
molecule = "CCOC(=O)C1=C(C)Nc2nnnn2C1c1ccccc1-n1ccnc1C.Cl (stereo not shown) [PT-457]"
assayed_target = "hERG potassium channel (Homo sapiens, UniProt Q12809)"
readout_type = "hERG Patch Clamp hERG % blk"
unit_text = "%"
assay_value = 21.0

[[record]]
molecule = "CC1=C(C(=O)OCc2ccccc2)C(c2cccc3ccccc23)n2nnnc2N1C (stereo not shown) [PT-195]"
assayed_target = "hERG potassium channel (Homo sapiens, UniProt Q12809)"
readout_type = "hERG Patch Clamp hERG % blk"
unit_text = "%"
assay_value = 49.0

[[record]]
molecule = "CCOC(=O)C1=C(C)Nc2c(c(C)nn2C)C1c1cccc2ccccc12 (stereo not shown) [PT-440]"
assayed_target = "hERG potassium channel (Homo sapiens, UniProt Q12809)"
readout_type = "hERG Patch Clamp hERG % blk"
unit_text = "%"
assay_value = 48.0

[[record]]
molecule = "CC1=C(C(=O)OCc2ccccc2)[C@@H](c2ccccc2-c2ccc(C)o2)n2nnnc2N1 [PT-235]"
assayed_target = "hERG potassium channel (Homo sapiens, UniProt Q12809)"
readout_type = "hERG Patch Clamp hERG % blk"
unit_text = "%"
assay_value = 41.5

[[record]]
molecule = "COc1ccc2ccccc2c1C1C(C(=O)OCc2ccccc2)=C(C)Nc2nnnn21 (stereo not shown) [PT-030]"
assayed_target = "hERG potassium channel (Homo sapiens, UniProt Q12809)"
readout_type = "hERG Patch Clamp hERG % blk"
unit_text = "%"
assay_value = 34.5

[[record]]
molecule = "CC1=C(C(=O)N2CCC(c3ccc(C(=O)O)cc3)CC2)C(c2cccc3ccccc23)C2=C(CCCC2=O)N1 (stereo not shown) [PT-173]"
assayed_target = "hERG potassium channel (Homo sapiens, UniProt Q12809)"
readout_type = "hERG Patch Clamp hERG % blk"
unit_text = "%"
assay_value = 37.0

[[record]]
molecule = "N#CC1=C(N)OC2=C(C(=O)CCC2)C1c1ccc(Br)cc1 (stereo not shown) [PT-096]"
assayed_target = "hERG potassium channel (Homo sapiens, UniProt Q12809)"
readout_type = "hERG Patch Clamp hERG % blk"
unit_text = "%"
assay_value = 48.0

[[record]]
molecule = "COC(=O)C1=C(C)Nc2nnnn2C1c1cccc2ccccc12 (stereo not shown) [PT-512]"
assayed_target = "hERG potassium channel (Homo sapiens, UniProt Q12809)"
readout_type = "hERG Patch Clamp hERG % blk"
unit_text = "%"
assay_value = 14.0

[[record]]
molecule = "CC1=C(C(=O)OCc2ccccc2)C(c2ccccc2N2CCN(S(C)(=O)=O)CC2)n2nnnc2N1 (stereo not shown) [PT-339]"
assayed_target = "hERG potassium channel (Homo sapiens, UniProt Q12809)"
readout_type = "hERG Patch Clamp hERG % blk"
unit_text = "%"
assay_value = 43.5

[[record]]
molecule = "CCOC(=O)C1=C(C)Nc2nnnn2C1c1ccccc1-n1cccn1.Cl (stereo not shown) [PT-477]"
assayed_target = "hERG potassium channel (Homo sapiens, UniProt Q12809)"
readout_type = "hERG Patch Clamp hERG % blk"
unit_text = "%"
assay_value = 44.0

[[record]]
molecule = "CC1=C(C(=O)O[C@@H](C)c2ccccc2)[C@@H](c2cccc3ccccc23)n2nnnc2N1 [PT-050]"
assayed_target = "hERG potassium channel (Homo sapiens, UniProt Q12809)"
readout_type = "hERG Patch Clamp hERG % blk"
unit_text = "%"
assay_value = 53.5

[[record]]
molecule = "CC1=C(C(=O)OCc2ccccc2)C(c2nccs2)n2nnnc2N1 (stereo not shown) [PT-364]"
assayed_target = "hERG potassium channel (Homo sapiens, UniProt Q12809)"
readout_type = "hERG Patch Clamp hERG % blk"
unit_text = "%"
assay_value = 17.5

[[record]]
molecule = "CC1=C(C(=O)OCc2ccccc2)[C@@H](c2ccccc2-c2ccc(Cl)s2)n2nnnc2N1 [PT-237]"
assayed_target = "hERG potassium channel (Homo sapiens, UniProt Q12809)"
readout_type = "hERG Patch Clamp hERG % blk"
unit_text = "%"
assay_value = 22.5

[[record]]
molecule = "CC1=C(C(=O)OC(C)Cc2ccccc2)C(c2cccc3ccccc23)n2nnnc2N1 (stereo not shown) [PT-064]"
assayed_target = "hERG potassium channel (Homo sapiens, UniProt Q12809)"
readout_type = "hERG Patch Clamp hERG % blk"
unit_text = "%"
assay_value = 37.5

[[record]]
molecule = "CCOC(=O)C1=C(C)Nc2[nH]ncc2C1c1ccccc1Br (stereo not shown) [PT-448]"
assayed_target = "hERG potassium channel (Homo sapiens, UniProt Q12809)"
readout_type = "hERG Patch Clamp hERG % blk"
unit_text = "%"
assay_value = 57.5

[[record]]
molecule = "CC1=C(C(=O)OCc2ccccc2)C(c2sccc2-c2ccc(F)cc2)n2nnnc2N1 (stereo not shown) [PT-397]"
assayed_target = "hERG potassium channel (Homo sapiens, UniProt Q12809)"
readout_type = "hERG Patch Clamp hERG % blk"
unit_text = "%"
assay_value = 25.0

[[record]]
molecule = "CCOC(=O)C1=C(C)Nc2nnnn2C1c1cccc2ccccc12 (stereo not shown) [PT-192]"
assayed_target = "hERG potassium channel (Homo sapiens, UniProt Q12809)"
readout_type = "hERG Patch Clamp hERG % blk"
unit_text = "%"
assay_value = 29.0

[[record]]
molecule = "CC1=C(C(=O)OCc2ccccc2)C(c2cccc3c2OCO3)n2nnnc2N1 (stereo not shown) [PT-034]"
assayed_target = "hERG potassium channel (Homo sapiens, UniProt Q12809)"
readout_type = "hERG Patch Clamp hERG % blk"
unit_text = "%"
assay_value = 56.0

[[record]]
molecule = "N#CC1=C(N)NC2=C(C(=O)CCC2)C1c1ccc(Br)cc1 (stereo not shown) [PT-095]"
assayed_target = "hERG potassium channel (Homo sapiens, UniProt Q12809)"
readout_type = "hERG Patch Clamp hERG % blk"
unit_text = "%"
assay_value = 24.5

[[record]]
molecule = "CCCC1=C(C(=O)OCC)C(c2ccsc2)C2=C(CC(c3ccco3)CC2=O)N1 (stereo not shown) [PT-150]"
assayed_target = "hERG potassium channel (Homo sapiens, UniProt Q12809)"
readout_type = "hERG Patch Clamp hERG % blk"
unit_text = "%"
assay_value = 49.3

